system: E. faecalis (Ef); assay: Broth microdilution minimum inhibitory concentration (MIC); assay type: cell-based; conditions: Enterococcus faecalis, E. faecalis; growth medium supplemented with sodium bicarbonate; read-out: Ef + bicarb MIC
endpoint name: MIC

These solved cases illustrate the format of a correct answer.
CC(N)[C@H]1CCN(Cc2ccc(-n3ccc(NC(=O)N4CCN(C(=O)C(C)(C)N)CC4)nc3=O)cc2)C1 (stereo partly drawn) [Compound 45] | < 8 µg/mL
CC(Cc1ccc(-n2ccc(NC(=O)N3CCN(C(=O)C(C)(C)N)CC3)nc2=O)cc1)N[C@H]1CC[C@H](N)C1 (stereo partly drawn) [Compound 162] | 8 to 32 µg/mL

Enquiry: I would be grateful if you could share the reported MIC for CC(N)C1CCN(CCc2cccc(-n3ccc(NC(=O)N4CCN(C(=O)C(C)(C)N)CC4)nc3=O)c2)CC1 (stereo not drawn) [Compound 34] .
Return: < 8 µg/mL

Enquiry: Using the record for CC(Cc1ccc(-n2ccc(NC(=O)N3CCN(C(=O)C(C)(C)N)CC3)nc2=O)cc1)N(C)C[C@H]1C[C@H](N)C1 (stereo partly drawn) [Compound 157] , report its MIC.
Return: < 8 µg/mL

Enquiry: For the molecule shown here, CC(C)(N)C(=O)N1CCN(C(=O)Nc2ccn(-c3ccc(CNCC4CNC4)cc3)c(=O)n2)CC1 [Compound 112] , give the reported MIC.
Return: > 32 µg/mL

Enquiry: # input molecule: CC(C)(N)C(=O)N1CCN(C(=O)Nc2ccn(-c3ccc(C[C@H](N)C(=O)N4CC(N)C4)cc3)c(=O)n2)CC1 [Compound 146] ; wanted: its MIC
Return: > 32 µg/mL

Enquiry: Returns the measured MIC for the input molecule. Input: CC(C)(N)C(=O)N1CCN(C(=O)Nc2ccn(-c3ccc(CN(CC4CC4)[C@H]4CC[C@H](N)CC4)cc3)c(=O)n2)CC1 [Compound 130]
Return: < 8 µg/mL

* * *

Measured MIC by item
test system: P. aeruginosa (Pa); experiment: Broth microdilution minimum inhibitory concentration (MIC); type: cell-based; details: Pseudomonas aeruginosa, P. aeruginosa; growth medium supplemented with sodium bicarbonate; read-out: Pa MIC + bicarb

CCC(N)C1CCCN(CCc2ccc(-n3ccc(NC(=O)N4CCN(C(=O)C(C)(C)N)CC4)nc3=O)cc2)C1 (stereo not drawn) [Compound 23] | > 32 µg/mL
CC(C)(N)C(=O)N1CCN(C(=O)Nc2ccn(-c3ccc(CN4CCC(N)CC4)cc3)c(=O)c2)[C@H](C(=O)O)C1 [Compound 64] | > 32 µg/mL
CC(C)(N)C(=O)N1C2COCC1CN(C(=O)Nc1ccn(-c3ccc(CN4CCC(N)CC4)cc3)c(=O)n1)C2 [Compound 68] | > 32 µg/mL
C[C@@H]1CN(C(=O)Nc2ccn(-c3ccc(CN4CCC(N)CC4)cc3)c(=O)n2)[C@@H](C)CN1C(=O)C(C)(C)N [Compound 74] | > 32 µg/mL
CC(N)[C@H]1CCN(CCc2ccc(-n3ccc(NC(=O)N4CCN(C(=O)C(C)(C)N)CC4)nc3=O)cc2)C1 (stereo partly drawn) [Compound 42] | 8 to 32 µg/mL
CC(C)(N)C(=O)N1CC2COCC(C1)N2C(=O)Nc1ccn(-c2ccc(CN3CCC(N)CC3)cc2)c(=O)n1 [Compound 85] | > 32 µg/mL
CC(C)(N)C(=O)N1CCN(C(=O)Nc2ccn(-c3ccc(CCN4CCCC(N)CC4)cc3)c(=O)n2)CC1 (stereo not drawn) [Compound 21] | 8 to 32 µg/mL
Cc1cc(-n2ccc(NC(=O)N3CCN(C(=O)C(C)(C)N)CC3)nc2=O)ccc1CCN1CCCC(N)CC1 (stereo not drawn) [Compound 140] | 8 to 32 µg/mL

Consider now this further molecule.
Enquiry: Given the molecule CC(Cc1ccc(-n2ccc(NC(=O)N3CCN(C(=O)C(C)(C)N)CC3)nc2=O)cc1)N[C@H]1CC[C@@H](N)C1 (stereo partly drawn) [Compound 150] , what is its reported MIC?
Return: > 32 µg/mL

* * *

system: E. faecalis (Ef); test: Broth microdilution minimum inhibitory concentration (MIC); type: cell-based; settings: Enterococcus faecalis, E. faecalis; growth medium supplemented with sodium bicarbonate; read-out: Ef + bicarb MIC
Reported MIC values for the following molecules.

The examples below pair each entry with its known result.
C[C@@H]1CN(C(=O)C(C)(C)N)CCN1C(=O)Nc1ccn(-c2ccc(CCN3CCCC(N)CC3)cc2)c(=O)n1 (stereo partly shown) [Compound 90] | < 8 mg/L
CCN(Cc1ccc(-n2ccc(NC(=O)N3CCN(C(=O)C(C)(C)N)CC3)nc2=O)cc1)[C@H]1CC[C@H](N)C1 [Compound 125] | < 8 mg/L
Cc1cc(-n2ccc(NC(=O)N3CCN(C(=O)C(C)(C)N)CC3)nc2=O)ccc1CCN1CCCC(N)CC1 (stereo not shown) [Compound 140] | < 8 mg/L
CN(Cc1ccc(-n2ccc(NC(=O)N3CCN(C(=O)C(C)(C)N)CC3)nc2=O)cc1)CC1CNC1 [Compound 111] | > 32 mg/L
CCN(Cc1ccc(-n2ccc(NC(=O)N3CCN(C(=O)C(C)(C)N)CC3)nc2=O)cc1)[C@H]1CC[C@H](N)CC1 [Compound 119] | < 8 mg/L
CCC(N)C1CCCN(CCc2ccc(-n3ccc(NC(=O)N4CCN(C(=O)C(C)(C)N)CC4)nc3=O)cc2)C1 (stereo not shown) [Compound 23] | > 32 mg/L

Enquiry: For E. faecalis (Ef), provide MIC of C[C@@H]1CN(C(=O)C(C)(C)N)CCN1C(=O)Nc1ccn(-c2ccc(CN3CCC(N)CC3)cc2)c(=O)n1 [Compound 61] please.
Return: 8 to 32 mg/L

* * *

test system: A. baumannii (Ab); assay: Broth microdilution minimum inhibitory concentration (MIC); type: cell-based; details: Acinetobacter baumannii, read-out: Ab + bicarb MIC
Where a name gives a salt, the structure may show the parent alone.
endpoint name: MIC

These solved cases illustrate the format of a correct answer.
CC(C)(N)C(=O)N1CCN(C(=O)Nc2ccn(-c3ccc(CN(C4CC4)[C@H]4CC[C@H](N)CC4)cc3)c(=O)n2)CC1 [Compound 348, hydrochloride salt] | > 32 µg/mL
NC1CCCN(CCc2ccc(-n3ccc(NC(=O)N4CCN(C(=O)C5CCCN5)CC4)nc3=O)cc2)CC1 (centres unmarked) [Compound 310, hydrochloride salt] | > 32 µg/mL
CC(C)(N)C(=O)N1CCN(C(=O)Nc2ccn(-c3ccc(CN4CCCC(N)CC4)c(F)c3)c(=O)n2)CC1 (centres unmarked) [Compound 334, hydrochloride salt] | > 32 µg/mL
CCN(Cc1ccc(-n2ccc(NC(=O)N3CCN(C(=O)C4(N)CCC4)CC3)nc2=O)cc1)C1CCC(N)CC1 (centres unmarked) [Compound 315, hydrochloride salt] | > 32 µg/mL
CCN(Cc1ccc(-n2ccc(NC(=O)N3CCN(C(=O)CNC)CC3)nc2=O)cc1)C1CCC(N)CC1 (centres unmarked) [Compound 313, hydrochloride salt] | > 32 µg/mL
NC1CCN(Cc2ccc(-n3ccc(NC(=O)N4C[C@H]5C[C@@H](N)C[C@H]5C4)nc3=O)cc2)CC1 [Compound 295, trifluoroacetate salt] | > 32 µg/mL

Lab note: next molecule to report on.
Enquiry: GET /values?readout=MIC&system=A. baumannii (Ab)&item= CC1C[C@@H](NCc2ccc(-n3ccc(NC(=O)N4CCN(C(=O)C(C)(C)N)CC4)nc3=O)cc2)CC[C@@H]1N (some centres unmarked) [Compound 335, hydrochloride salt]
Return: > 32 µg/mL

* * *

system: E. coli S30 extract (bacterial protein synthesis); assay: E. coli S30 extract coupled transcription-translation luciferase assay (inhibition of bacterial protein synthesis); assay type: biochemical; conditions: % inhibition @ 1 μM, read-out: S30 IC50 (μM/% inhib.)
Structures can show the parent of a compound that is named as a salt.
Here, each record is paired with measured IC50 data.

CCN(Cc1ccc(-n2ccc(NC(=O)N3CCN(C(=O)[C@@H](C)NC(=O)[C@@H](C)N)CC3)nc2=O)cc1)C1CCC(N)CC1 (stereo partly shown) | > 1 µM
CC(C)(N)C(=O)N1CCN(C(=O)Nc2ccn(-c3ccc(CN4CCC(F)(F)CC4)cc3)c(=O)n2)CC1 | > 1 µM
CC(C)N(Cc1ccc(-n2ccc(NC(=O)N3CCN(C(=O)C(C)(C)N)CC3)nc2=O)cc1)C1CCC(N)CC1 (stereo not shown) | > 1 µM
CC(C)(N)C(=O)N1CCN(C(=O)Nc2ccn(-c3ccc(CN4CC(CCN)(C(=O)O)C4)cc3)c(=O)n2)CC1 [Compound 369, hydrochloride salt] | > 1 µM
CCN(Cc1ccc(-n2ccc(NC(=O)N3CCN(C(=O)[C@H](C)N)CC3)nc2=O)cc1)C1CCC(N)CC1 (stereo partly shown) | < 0.5 µM

// switching to the query compound
Enquiry: Value lookup for IC50; key = CC(C)(N)C(=O)N1CCN(C(=O)Nc2ccn(-c3ccc(CNCC4CNC4)cc3)c(=O)n2)CC1
Return: < 0.5 µM

# credit: patent US12503452B2
